Assay: Pharmacokinetic evaluations in SD rats
Assay type: in vivo
Settings: Sprague-Dawley, rat, plasma, po (25 mg/kg)
Quantity Kind: Cmax (ng/mL)
Write down the numeric answer in ng/mL and omit the unit.

Request: Find the recorded Cmax belonging to CCS(=O)(=O)c1ccc(CC(=O)Nc2ccc(-c3nc4ccc(C(F)(F)F)cc4n3[C@@H](C)c3ccc(F)cc3)cc2)cc1 [Example 68] and report it.
Response: 5730

====

Molecular target: hRORγ (Homo sapiens, UniProt P51449)
Experiment: protein thermal stability shift assay (TSA)
Conditions: read-out: ΔTm (TSA detection technique), hRORγ 10 μM, compound 200 μM
# key: entry, value: ΔTm at 200 µM

{"Compound": "CCS(=O)(=O)c1ccc(CC(=O)Nc2ccc(-c3nc4ccc(F)cc4s3)cc2)cc1", "Assayed Target": "hRORγ (Homo sapiens, UniProt P51449)", "ΔTm at 200 µM": "5 to 10 °C"}
{"Compound": "CCS(=O)(=O)c1ccc(CC(=O)Nc2ccc(-c3nc4ccc(C)cc4n3Cc3ccc(C#N)cc3)cc2)cc1", "Assayed Target": "hRORγ (Homo sapiens, UniProt P51449)", "ΔTm at 200 µM": "5 to 10 °C"}
{"Compound": "CCS(=O)(=O)c1ccc(C(NC(C)=O)C(=O)Nc2ccc(-c3nc4ccc(C)cc4n3[C@@H](C)c3ccc(C)cc3)cc2)cc1 (single isomer, unassigned) [Example 74]", "Assayed Target": "hRORγ (Homo sapiens, UniProt P51449)", "ΔTm at 200 µM": "< 5 °C"}

Request: Find the recorded ΔTm at 200 µM belonging to CCS(=O)(=O)c1ccc(CC(=O)Nc2ccc(-c3nc4ccc(Cl)cc4n3Cc3ccccc3)cc2)cc1 and report it.
Response: < 5 °C

Request: # repeat for CCS(=O)(=O)c1ccc(C(NC(C)=O)C(=O)Nc2ccc(-c3nc4cc(C(=O)NC(C)C)ccc4n3[C@@H](C)c3ccc(C)cc3)nc2)cc1 (stereo partly drawn)
Response: 5 to 10 °C

Request: # repeat for CCS(=O)(=O)c1ccc(CC(=O)Nc2ccc(-c3nc4ccc(C(=O)NC5CCCC5)cc4n3[C@H](C)c3ccc(C)cc3)cc2)cc1
Response: 5 to 10 °C

====

Target: RORγ (Homo sapiens)
Sequence (P51449 269-508 limits assumed): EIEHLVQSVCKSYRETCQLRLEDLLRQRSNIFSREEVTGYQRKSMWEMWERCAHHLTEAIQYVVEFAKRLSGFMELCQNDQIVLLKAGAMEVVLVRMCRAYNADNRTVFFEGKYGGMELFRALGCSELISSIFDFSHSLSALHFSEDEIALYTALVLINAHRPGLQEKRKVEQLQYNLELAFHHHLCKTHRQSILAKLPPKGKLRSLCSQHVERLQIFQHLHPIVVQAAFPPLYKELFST
Test: luciferase dual reporter gene assay, Gal4-RORγLBD in 293T cells
pIC50: −log10 of the molar value.
# key: entry, value: pIC50

Would you please look over these solved cases?
{"Molecule": "CCN1C(=O)c2cccc3c(S(=O)(=O)Nc4ccc(-c5nc6ccc(C)cc6s5)cc4)ccc1c23", "pIC50": "4.00 to 5.00"}
{"Molecule": "CCS(=O)(=O)c1ccc(C(NC(C)=O)C(=O)Nc2ccc(-c3nc4ccc(C)cc4n3[C@H](C)c3ccc(C)cc3)nc2)cc1 (stereo partly shown)", "pIC50": "> 7.00"}
{"Molecule": "CCS(=O)(=O)c1ccc(C(NC(C)=O)C(=O)Nc2ccc(-c3nc4ccc(C)cc4n3[C@@H](C)c3ccc(C)cc3)nc2)cc1 (stereo partly shown)", "pIC50": "> 7.00"}

Okay, next one:
Request: Find the recorded pIC50 belonging to CCCCCn1c(-c2ccc(NC(=O)C(NC(C)=O)c3ccc(S(=O)(=O)CC)cc3)cn2)nc2ccc(C)cc21 (stereo not shown) and report it.
Response: > 7.00

====

Target: hRORγ (Homo sapiens, UniProt P51449)
Sequence (P51449 1-518): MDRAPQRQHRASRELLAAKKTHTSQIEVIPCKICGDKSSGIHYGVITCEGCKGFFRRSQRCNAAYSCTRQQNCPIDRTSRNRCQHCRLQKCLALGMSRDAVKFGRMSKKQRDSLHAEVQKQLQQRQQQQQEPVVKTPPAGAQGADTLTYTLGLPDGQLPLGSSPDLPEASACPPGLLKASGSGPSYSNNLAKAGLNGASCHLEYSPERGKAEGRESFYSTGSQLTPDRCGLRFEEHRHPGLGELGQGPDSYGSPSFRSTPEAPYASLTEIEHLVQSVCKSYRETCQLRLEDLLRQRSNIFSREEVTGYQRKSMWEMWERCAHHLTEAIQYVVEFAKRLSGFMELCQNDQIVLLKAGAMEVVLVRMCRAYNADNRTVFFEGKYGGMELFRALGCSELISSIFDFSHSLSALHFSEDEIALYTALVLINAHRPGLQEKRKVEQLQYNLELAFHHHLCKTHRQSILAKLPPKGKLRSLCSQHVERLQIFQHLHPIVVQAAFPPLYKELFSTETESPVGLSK
Experiment: protein thermal stability shift assay (TSA)
Details: read-out: ΔTm (TSA detection technique)
# key: entry, value: ΔTm at 200 µM

Would you please look over these solved cases?
{"Compound": "CCS(=O)(=O)c1ccc(C(NC(C)=O)C(=O)Nc2ccc(-c3nc4ccc(C)cc4n3[C@H](C)c3ccc(C)cc3)nc2)cc1 (stereo partly shown)", "Assayed Target": "hRORγ (Homo sapiens, UniProt P51449)", "Experimental Result": "< 5 °C"}
{"Compound": "CCN1C(=O)c2cccc3c(S(=O)(=O)Nc4ccc(-c5nc6ccc(C)cc6s5)cc4)ccc1c23", "Assayed Target": "hRORγ (Homo sapiens, UniProt P51449)", "Experimental Result": "> 10 °C"}
{"Compound": "CCCCCn1c(-c2ccc(NC(=O)C(NC(C)=O)c3ccc(S(=O)(=O)CC)cc3)cn2)nc2ccc(C)cc21 (stereo not shown)", "Assayed Target": "hRORγ (Homo sapiens, UniProt P51449)", "Experimental Result": "< 5 °C"}

Request: Find the recorded ΔTm at 200 µM belonging to CCS(=O)(=O)c1ccc(C(NC(C)=O)C(=O)Nc2ccc(-c3nc4ccc(C)cc4n3[C@@H](C)c3ccc(C)cc3)nc2)cc1 (stereo partly shown) and report it.
Response: < 5 °C

====

Biological target: RORγ (Homo sapiens, UniProt P51449)
Sequence (P51449 269-508 limits assumed): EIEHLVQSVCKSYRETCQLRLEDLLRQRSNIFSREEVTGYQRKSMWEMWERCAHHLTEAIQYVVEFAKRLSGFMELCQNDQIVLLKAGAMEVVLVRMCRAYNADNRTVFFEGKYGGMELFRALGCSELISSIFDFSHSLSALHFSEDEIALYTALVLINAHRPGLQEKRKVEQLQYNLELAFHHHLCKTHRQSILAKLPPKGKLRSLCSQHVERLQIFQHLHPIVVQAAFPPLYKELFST
Assay: luciferase dual reporter gene assay, Gal4-RORγLBD in 293T cells
Details: IC50 (luciferase detection technique), RORγ transcriptional activity, Table 1
Quantity Kind: IC50

{"Compound": "CCS(=O)(=O)c1ccc(CC(=O)Nc2ccc(-c3nc4cc(Cl)ccc4n3Cc3ccccc3)cc2)cc1", "Quantity Kind": "IC50", "Experimental Result": "< 100 nM"}
{"Compound": "CCS(=O)(=O)c1ccc(CC(=O)Nc2ccc(-c3nc4ccc(Cl)cc4n3Cc3ccccc3)cc2)cc1", "Quantity Kind": "IC50", "Experimental Result": "< 100 nM"}
{"Compound": "CCS(=O)(=O)c1ccc(CC(=O)Nc2ccc(-c3nc4ccc(OC)cc4s3)cc2)cc1", "Quantity Kind": "IC50", "Experimental Result": "10000 to 100000 nM"}
{"Compound": "CCS(=O)(=O)c1ccc(CC(=O)Nc2ccc(-c3nc4ccc(C)cc4n3Cc3ccc(C#N)cc3)cc2)cc1", "Quantity Kind": "IC50", "Experimental Result": "< 100 nM"}
{"Compound": "Cc1ccc(CS(=O)(=O)Nc2ccc(-c3nc4ccc(C)cc4s3)cc2)cc1", "Quantity Kind": "IC50", "Experimental Result": "1000 to 10000 nM"}

Request: Find the recorded IC50 belonging to CCS(=O)(=O)c1ccc(CC(=O)Nc2ccc(-c3nc4cc(Cl)c(Cl)cc4n3Cc3ccccc3)cc2)cc1 and report it.
Response: 100 to 1000 nM

Request: # repeat for CCS(=O)(=O)c1ccc(C(NC(C)=O)C(=O)Nc2ccc(-c3nc4cc(C(=O)NC(C)C)ccc4n3[C@H](C)c3ccc(C)cc3)nc2)cc1 (stereo partly drawn)
Response: 1000 to 10000 nM

Request: # repeat for CCS(=O)(=O)c1ccc(CC(=O)Nc2ccc(-c3nc4cc(C(=O)NC5CCCC5)ccc4n3[C@H](C)c3ccc(C)cc3)cc2)cc1
Response: < 100 nM

Request: # repeat for Cc1ccc(CC(=O)Nc2ccc(-c3nc4ccc(C)cc4s3)cc2)cc1
Response: 10000 to 100000 nM
